The origin of these recorded values is patent US9586958B2.

Below: a set of entries, each annotated with reported IC50.
Biological target: human kinase Mps-1 (Homo sapiens, UniProt P33981)
Construct: N-terminally GST-tagged human full length recombinant Mps-1 kinase; GST (N); purchased Invitrogen, Karslruhe, Germany PV4071
Sequence (P33981 1-857): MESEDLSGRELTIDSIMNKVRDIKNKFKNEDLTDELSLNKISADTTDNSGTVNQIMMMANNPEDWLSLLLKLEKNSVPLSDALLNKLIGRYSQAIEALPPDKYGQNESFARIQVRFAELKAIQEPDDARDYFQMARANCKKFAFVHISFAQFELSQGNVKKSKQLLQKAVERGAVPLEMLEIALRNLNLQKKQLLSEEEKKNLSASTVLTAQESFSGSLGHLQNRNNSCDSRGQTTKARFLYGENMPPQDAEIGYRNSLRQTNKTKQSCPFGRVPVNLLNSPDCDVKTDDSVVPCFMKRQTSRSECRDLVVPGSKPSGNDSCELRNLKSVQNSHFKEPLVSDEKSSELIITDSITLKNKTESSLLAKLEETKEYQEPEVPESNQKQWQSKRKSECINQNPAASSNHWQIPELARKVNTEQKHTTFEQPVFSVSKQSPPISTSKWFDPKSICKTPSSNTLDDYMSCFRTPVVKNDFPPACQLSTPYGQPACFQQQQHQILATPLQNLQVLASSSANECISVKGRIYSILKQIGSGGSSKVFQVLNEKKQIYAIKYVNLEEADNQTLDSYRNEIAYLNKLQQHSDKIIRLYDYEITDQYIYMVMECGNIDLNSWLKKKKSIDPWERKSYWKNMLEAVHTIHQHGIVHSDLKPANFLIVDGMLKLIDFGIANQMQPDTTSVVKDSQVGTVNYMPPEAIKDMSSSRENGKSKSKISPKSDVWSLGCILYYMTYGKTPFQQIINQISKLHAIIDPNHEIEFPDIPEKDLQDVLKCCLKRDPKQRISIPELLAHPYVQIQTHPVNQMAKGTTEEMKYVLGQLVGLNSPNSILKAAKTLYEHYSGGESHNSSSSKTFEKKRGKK
Experiment: Mps-1 kinase assay (TR-FRET) with 10 μM ATP
Assay type: biochemical
Conditions: Mps-1 Inhibition, IC50 (Assay with 10 μM ATP), comparison table with comparative examples
Expressed in nM, but write only the number.

NC(C(=O)Nc1ccc(-c2ccc3nc(Nc4ccccc4C(F)(F)F)nn3c2)cc1)c1ccccc1 (centres unmarked) [reference compound] ... 13

Next compound, please.
Fill in: IC50 of N#Cc1ccccc1Nc1nc2ccc(-c3ccc(NC(=O)C4(c5ccccc5)CC4)cc3)cn2n1 [reference compound] is ___
11

====

Experiment: In vitro stability in rat plasma (HPLC detection)
Assay type: in vitro ADME
Conditions: 37° C.
Counter-ions that a name gives are not always drawn.
Below: a set of entries, each annotated with reported % Test Compound after 4 h [F(t = 24 h) × 100/F(t = 0 h)].
Expressed in %, but write only the number.

C[C@@H](C(=O)Nc1ccc(-c2ccc3nc(N(C(=O)OCOC(=O)[C@@H](N)C(C)(C)C)c4ccc(S(C)(=O)=O)cc4OCC(F)(F)F)nn3c2)cc1)c1ccc(F)cc1.Cl ... 4
C[C@@H](C(=O)Nc1ccc(-c2ccc3nc(N(C(=O)OCOC(=O)[C@@H](N)C(C)(C)C)c4ccc(C(=O)N5CC(F)C5)cc4OCC(F)(F)F)nn3c2)cc1)c1ccc(F)cc1.Cl ... 0.0
COc1cc(S(C)(=O)=O)ccc1N(C(=O)OCOC(=O)[C@@H](N)CC(C)C)c1nc2ccc(-c3ccc(NC(=O)[C@H](C)c4ccc(F)cc4)cc3)cn2n1.Cl ... 0.0
COc1cc(S(C)(=O)=O)ccc1N(C(=O)OC(C)OC(=O)[C@@H](NC(=O)[C@@H](N)C(C)C)C(C)C)c1nc2ccc(-c3ccc(NC(=O)[C@H](C)c4ccc(F)cc4)cc3)cn2n1.Cl (mixture of isomers) ... 45
COc1cc(S(C)(=O)=O)ccc1N(C(=O)OC(C)OC(=O)[C@@H](N)C(C)C)c1nc2ccc(-c3ccc(NC(=O)[C@H](C)c4ccc(F)cc4)cc3)cn2n1.Cl (mixture of isomers) ... 0.0
COc1cc(S(C)(=O)=O)ccc1N(C(=O)OCOP(=O)(O)O)c1nc2ccc(-c3ccc(NC(=O)[C@H](C)c4ccc(F)cc4)cc3)cn2n1 ... 0.0

Fill in: % Test Compound after 4 h [F(t = 24 h) × 100/F(t = 0 h)] of COc1cc(S(C)(=O)=O)ccc1N(C(=O)OCOC(=O)[C@@H](NC(=O)[C@@H](N)C(C)C)C(C)C)c1nc2ccc(-c3ccc(NC(=O)[C@H](C)c4ccc(F)cc4)cc3)cn2n1 [Example 2.3, hydrochloride] is ___
37

Fill in: % Test Compound after 4 h [F(t = 24 h) × 100/F(t = 0 h)] of COc1cc(S(C)(=O)=O)ccc1N(C(=O)OC(C)OC(=O)[C@@H](NC(=O)[C@@H](N)CCCCN)C(C)C)c1nc2ccc(-c3ccc(NC(=O)[C@H](C)c4ccc(F)cc4)cc3)cn2n1.Cl.Cl (mixture of isomers) is ___
5

Fill in: % Test Compound after 4 h [F(t = 24 h) × 100/F(t = 0 h)] of COc1cc(S(C)(=O)=O)ccc1N(C(=O)OC(C)OC(=O)[C@@H](N)C(C)(C)C)c1nc2ccc(-c3ccc(NC(=O)[C@H](C)c4ccc(F)cc4)cc3)cn2n1.Cl (mixture of isomers) is ___
0.0

Fill in: % Test Compound after 4 h [F(t = 24 h) × 100/F(t = 0 h)] of COc1cc(S(C)(=O)=O)ccc1N(C(=O)OCOC(=O)[C@@H](N)C(C)C)c1nc2ccc(-c3ccc(NC(=O)[C@H](C)c4ccc(F)cc4)cc3)cn2n1 [Example 1.2, hydrochloride] is ___
0.0

Fill in: % Test Compound after 4 h [F(t = 24 h) × 100/F(t = 0 h)] of CNCCOC(=O)N(c1nc2ccc(-c3ccc(NC(=O)[C@H](C)c4ccc(F)cc4)cc3)cn2n1)c1ccc(S(C)(=O)=O)cc1OC.Cl is ___
80

Fill in: % Test Compound after 4 h [F(t = 24 h) × 100/F(t = 0 h)] of CC(C)[C@H](N)C(=O)OCOC(=O)N(c1nc2ccc(-c3ccc(NC(=O)[C@H](C)c4ccc(F)cc4)cc3)cn2n1)c1ccc(S(C)(=O)=O)cc1OCC(F)(F)F.Cl is ___
6

Fill in: % Test Compound after 4 h [F(t = 24 h) × 100/F(t = 0 h)] of CNCCCC(=O)N(c1nc2ccc(-c3ccc(NC(=O)[C@H](C)c4ccc(F)cc4)cc3)cn2n1)c1ccc(S(C)(=O)=O)cc1OC.Cl is ___
32

Fill in: % Test Compound after 4 h [F(t = 24 h) × 100/F(t = 0 h)] of CC[C@H](C)[C@H](N)C(=O)OC(C)OC(=O)N(c1nc2ccc(-c3ccc(NC(=O)[C@H](C)c4ccc(F)cc4)cc3)cn2n1)c1ccc(S(C)(=O)=O)cc1OC.Cl (mixture of isomers) is ___
19
